- experimental target: Signal transducer and activator of transcription 1-alpha/beta (Homo sapiens)
- assay explanation: STAT1 reporter inhibitors, potency curves, dose response, counter-screen for STAT3 inhibitor project, cell-based, NIH 3T3, luciferase reporter (AID 1411)
- experimental parameters: NIH 3T3 fibroblasts, counterscreen
Active and inactive are the calls of the source. The rule behind the calls is not given here.
value kind: IC50

test smiles	IC50
CN1/C(=C\C(=O)C[n+]2ccc(C(=O)c3ccccc3)cc2)C(C)(C)c2ccccc21	> 55.7 µM (inactive)

Measured IC50 of NC(=O)C1CCN(c2ccc(S(=O)(=O)N3CCC(Cc4ccccc4)CC3)cn2)CC1 : > 55.7 µM (inactive)

Measured IC50 of C[C@@H]1O[C@@H](O[C@H]2C[C@@H](O)[C@]3(CO)[C@H]4[C@H](O)C[C@]5(C)[C@@H](C6=CC(=O)OC6)CC[C@]5(O)[C@@H]4CC[C@]3(O)C2)[C@H](O)[C@H](O)[C@H]1O : > 55.7 µM (inactive)
